// koff lookup, one value per entry
- Target entity: biotinylated human ApoC3 (human) (UniProt P02656)
- Test: SPR, biotinylated human ApoC3 on streptavidin chip, scFv-Fc injected, pH 7.4
The figure you give is taken to be in s⁻¹; do not add the unit.

Solved entries:
5E5VH5_VLWT scFv-Fc antibody (scFv, part only; not given: Linker, domain order, Fc, V domains shown, not shown: another chain or arm of the molecule; a dimerising Fc or GST; small tags and cut ends) VH: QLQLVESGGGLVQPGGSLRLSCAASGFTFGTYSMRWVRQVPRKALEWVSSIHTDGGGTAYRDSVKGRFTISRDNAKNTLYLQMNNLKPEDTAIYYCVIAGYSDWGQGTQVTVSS VL: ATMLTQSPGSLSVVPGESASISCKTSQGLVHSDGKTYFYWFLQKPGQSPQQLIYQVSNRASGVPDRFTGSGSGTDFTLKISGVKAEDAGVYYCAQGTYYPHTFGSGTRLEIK = 0.000105
5E5VHWT_VL8 scFv-Fc antibody (scFv, part only; not given: Linker, domain order, Fc, V domains shown, not shown: another chain or arm of the molecule; a dimerising Fc or GST; small tags and cut ends) VH: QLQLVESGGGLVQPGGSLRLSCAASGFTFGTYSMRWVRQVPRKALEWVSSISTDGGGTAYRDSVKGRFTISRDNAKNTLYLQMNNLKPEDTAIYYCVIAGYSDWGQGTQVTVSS VL: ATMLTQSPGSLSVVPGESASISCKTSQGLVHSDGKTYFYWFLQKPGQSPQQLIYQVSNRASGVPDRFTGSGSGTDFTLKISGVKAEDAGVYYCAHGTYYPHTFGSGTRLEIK = 0.000221

[in] # lookup: koff of 5E5VH12_VLWT scFv-Fc antibody (scFv, part only; not given: Linker, domain order, Fc, V domains shown, not shown: another chain or arm of the molecule; a dimerising Fc or GST; small tags and cut ends) VH: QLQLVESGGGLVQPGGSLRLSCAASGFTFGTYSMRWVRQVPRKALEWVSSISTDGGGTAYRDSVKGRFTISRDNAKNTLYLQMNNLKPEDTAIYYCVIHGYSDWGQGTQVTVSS VL: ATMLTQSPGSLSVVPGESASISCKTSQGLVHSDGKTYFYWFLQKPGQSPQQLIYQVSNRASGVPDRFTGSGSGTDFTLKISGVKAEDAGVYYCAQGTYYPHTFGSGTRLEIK
[out] 0.000157
